FYI, the data here is from the NIST ThermoML archive (doi:10.1021/je4000372).

- STATED CONDITIONS: 313.15 K; 101 kPa; Liquid; Capillary tube (Ostwald / Ubbelohde) method
Measured viscosity accompanies every entry in the list below.
Answer in mPa·s, number only, no unit symbol.

MOLECULE | MEASURED ENDPOINT | RECORDED RESULT
OCCN(CCO)CCO [triethanolamine] | viscosity | 203.9
CCCCOCCOCCO [3,6-dioxa-1-decanol] | viscosity | 3.22
NCCO [2-aminoethan-1-ol] | viscosity | 9.93

Next:
If you can, please state the reported viscosity value of OCCNCCO [diethanolamine] . 187.6

* * *

- STATED CONDITIONS: 313.15 K; 101 kPa; Liquid; Pycnometric method
MEASURED ENDPOINT: mass density (kg/m3)
All answers are understood in kg/m3, so give the number only.

Reference set, count: 3
CHEMICAL SMILES | UNIT NAME | mass density
OCCNCCO | kg/m3 | 1083.7
NCCO | kg/m3 | 1000.1
CCCCOCCOCCO | kg/m3 | 935.7

Next, consider the following molecule.
Need mass density, item `OCCN(CCO)CCO` 1112.8
